- measurementDescription: Acute toxicity on mice
- Assay type: in vivo
- condition: mouse, in vivo, ip, 24 hours after administration; read-out: Estimated LD50
measuredQuantity: LD50 at 24 h

Prompt: If you can, please state the reported LD50 at 24 h value of CN(C(=O)c1ccccc1)c1ccnc(N2CCC(c3ccccc3)CC2)n1 .
Completion: > 1000 mg/kg

Prompt: Which value of LD50 at 24 h has been reported for Cc1cnc(N2CCCCC2)nc1N(C)C(=O)c1ccccc1 in the records?
Completion: 500 to 1000 mg/kg

Prompt: Entry under review: CC(=O)N(C)c1ccnc(N2CCCCC2)n1 . Reported LD50 at 24 h?
Completion: > 1000 mg/kg

Prompt: Requested read-out: LD50 at 24 h. Entry: CN(C(=O)Cc1ccccc1)c1ccnc(N2CCC(c3ccccc3)CC2)n1
Completion: 500 to 1000 mg/kg

Prompt: Would you mind telling me what LD50 at 24 h value was observed for CN(C(=O)c1ccccc1)c1ccnc(N2CCC(C)(C)CC2)n1 ?
Completion: 500 to 1000 mg/kg

Prompt: Entry under review: CC1CCN(c2nccc(N(C)C(=O)c3ccccc3)n2)CC1 . Reported LD50 at 24 h?
Completion: > 1000 mg/kg

Prompt: GET /values?readout=LD50 at 24 h&item= CN1C(=O)Cc2cnc(N3CCN(C(c4ccc(Cl)cc4)c4ccc(Cl)cc4)CC3)nc21
Completion: 500 to 1000 mg/kg

Prompt: I'd like to know its LD50 at 24 h. The compound in question is CC(C)C(=O)N(C)c1ccnc(N2CCC(c3ccccc3)CC2)n1
Completion: > 1000 mg/kg

Prompt: Could you share which LD50 at 24 h value was measured for CN(Cc1ccccc1)c1ccnc(N2CCC(c3ccccc3)CC2)n1 ?
Completion: 500 to 1000 mg/kg

Prompt: Consider the compound CN1C(=O)Cc2cnc(N3CCN(C(c4ccccc4)c4ccc(Cl)cc4)CC3)nc21 (stereo not shown) and give its measured LD50 at 24 h.
Completion: 500 to 1000 mg/kg

Prompt: Entry CNc1nc(C)cc(N2CCC(c3ccccc3)CC2)n1 : reported LD50 at 24 h = ?
Completion: < 250 mg/kg

Prompt: Field request: LD50 at 24 h | item: CC1CC(C)CN(c2nccc(N(C)C(=O)c3ccccc3)n2)C1 (stereo not shown)
Completion: > 1000 mg/kg

Prompt: Tell me the measured LD50 at 24 h of CN(C(=O)c1ccco1)c1ccnc(N2CCC(c3ccccc3)CC2)n1 , please.
Completion: > 1000 mg/kg

Prompt: Consider the compound CN(C(=O)c1ccccc1)c1ccnc(N2CCCC2)n1 and give its measured LD50 at 24 h.
Completion: > 1000 mg/kg

Prompt: Any idea what LD50 at 24 h was measured for CN(C(=O)C=Cc1ccccc1)c1ccnc(N2CCC(c3ccccc3)CC2)n1 ?
Completion: 500 to 1000 mg/kg

Prompt: Quick check: LD50 at 24 h of CN(C(=O)c1cccnc1)c1ccnc(N2CCC(c3ccccc3)CC2)n1 ?
Completion: > 1000 mg/kg

Prompt: Need LD50 at 24 h of CC1CCCCN1c1nccc(N(C)C(=O)c2ccccc2)n1 (stereo not shown) , thanks.
Completion: > 1000 mg/kg

Prompt: Fill blank: measured LD50 at 24 h of the compound Cc1cc(N(C)C(=O)c2ccccc2)nc(N2CCC(c3ccccc3)CC2)n1 is ____.
Completion: 500 to 1000 mg/kg

Prompt: GET /values?readout=LD50 at 24 h&item= CN(C(=O)c1ccccc1)c1ccnc(N2CCCCC2)n1
Completion: > 1000 mg/kg

Reference source: patent US5147876A
